test system: Leishmania amazonensis; assay: Antiparasitic activity against promastigote form of Leishmania amazonensis MHOM/BR/Josefa after 72 hrs by hemocytometry; assay type: functional, organism-based
Parameter: pIC50
FYI, pIC50 means -log10 of a concentration in mol per litre.

INPUT: Form field - read-out: pIC50; system: Leishmania amazonensis; submitted item: C[C@@H]1[C@H](O)[C@@H](C)/C=C/C=C/C=C/C=C/C=C/C=C/C=C/[C@H](O[C@@H]2O[C@H](C)[C@@H](O)[C@H](N)[C@@H]2O)C[C@@H]2O[C@](O)(C[C@@H](O)C[C@@H](O)[C@H](O)CC[C@@H](O)C[C@@H](O)CC(=O)O[C@H]1C)C[C@H](O)[C@H]2C(=O)O
OUTPUT: 7.22

INPUT: What do we get for C/C(=C\c1ccc(N(C)C)cc1)C(=O)/C=C/c1ccccc1 ?
OUTPUT: 4.67

INPUT: Let us now turn to C/C(=C\c1ccc([N+](=O)[O-])cc1)C(=O)/C=C/c1ccc(N(C)C)cc1
OUTPUT: 4.92

====

assay: Cytotoxicity against mouse J774A1 cells after 48 hrs by MTT assay; type: cell-based, J774.A1
Label key: 1 means CC50 at 48 h under 30 µM; 0 means CC50 at 48 h of 30 µM or more.

Example cases with answers are listed next.
| Given Smiles | Cat |
| --- | --- |
| C/C(=C\c1ccc([N+](=O)[O-])cc1)C(=O)/C=C/c1ccccc1 | 0 |
| C/C(=C\c1ccc([N+](=O)[O-])cc1)C(=O)/C=C/c1ccc([N+](=O)[O-])cc1 | 0 |
| C/C(=C\c1ccc([N+](=O)[O-])cc1)C(=O)/C=C/c1ccc(N(C)C)cc1 | 1 |
| CC(=O)/C(C)=C/c1ccc(N(C)C)cc1 | 0 |
| C/C(=C\c1ccccc1)C(=O)/C=C/c1ccc([N+](=O)[O-])cc1 | 1 |

INPUT: Decide: CC50 at 48 h of COc1ccc(/C=C(\C)C(=O)/C=C/c2ccccc2)cc1 strictly below 30 µM?
OUTPUT: 0

INPUT: What would you report for C/C(=C\c1ccc(N(C)C)cc1)C(=O)/C=C/c1ccc([N+](=O)[O-])cc1 ?
OUTPUT: 0

INPUT: What about this molecule? COc1ccc(/C=C/C(=O)/C(C)=C/c2ccc(N(C)C)cc2)cc1
OUTPUT: 0

INPUT: Entry to check: C/C(=C\c1ccc(N(C)C)cc1)C(=O)/C=C/c1ccccc1
OUTPUT: 1

====

test: Cytotoxicity against mouse J774A1 cells after 48 hrs by MTT assay; format: cell-based, J774.A1
Collected log10(CC50 at 48 h) values appear next to each entry.
Use the decimal logarithm of CC50 at 48 h (µM).

| Given Smiles | Data Value |
| --- | --- |
| CC(=O)/C(C)=C/c1ccccc1 | 2.87 |

INPUT: log10(CC50 at 48 h) lookup needed for CC(=O)/C(C)=C/c1ccc([N+](=O)[O-])cc1 , thanks.
OUTPUT: 1.85

INPUT: Next entry: COc1ccc(/C=C/C(=O)/C(C)=C/c2ccccc2)cc1
OUTPUT: 1.71

INPUT: Same lookup for COc1ccc(/C=C/C(=O)/C(C)=C/c2ccc(OC)cc2)cc1 , please.
OUTPUT: 1.53

INPUT: Quick one: COc1ccc(/C=C(\C)C(=O)/C=C/c2ccc(N(C)C)cc2)cc1
OUTPUT: 1.56

INPUT: Same again, this time with C/C(=C\c1ccc(N(C)C)cc1)C(=O)/C=C/c1ccc(N(C)C)cc1
OUTPUT: 1.00

INPUT: Now give it for COc1ccc(/C=C/C(=O)/C(C)=C/c2ccc([N+](=O)[O-])cc2)cc1 too.
OUTPUT: 1.56

INPUT: Now consider COc1ccc(/C=C(\C)C(C)=O)cc1 .
OUTPUT: 2.38

INPUT: # repeat for C/C(=C\c1ccccc1)C(=O)/C=C/c1ccccc1
OUTPUT: 1.54

INPUT: Can you check C/C(=C\c1ccccc1)C(=O)/C=C/c1ccc(N(C)C)cc1 next?
OUTPUT: 1.31

====

test: Cytotoxicity against monkey LLC-MK2 cells after 48 hrs by MTT assay; assay type: cell-based, Macaca mulatta; settings: rhesus monkey
Parameter: log10 CC50 at 48 h (log10 of the value in µM)
# values: log10(CC50 at 48 h), units µM

See these solved cases before continuing.
| Molecule | log10 CC50 at 48 h |
| --- | --- |
| COc1ccc(/C=C(\C)C(=O)/C=C/c2ccc([N+](=O)[O-])cc2)cc1 | 1.30 |
| COc1ccc(/C=C/C(=O)/C(C)=C/c2ccccc2)cc1 | 1.97 |
| COc1ccc(/C=C(\C)C(C)=O)cc1 | 2.45 |
| C/C(=C\c1ccccc1)C(=O)/C=C/c1ccc(N(C)C)cc1 | 1.72 |
| COc1ccc(/C=C/C(=O)/C(C)=C/c2ccc(N(C)C)cc2)cc1 | 2.45 |

INPUT: Fill blank: measured log10 CC50 at 48 h of the molecule C/C(=C\c1ccc([N+](=O)[O-])cc1)C(=O)/C=C/c1ccc([N+](=O)[O-])cc1 is ____.
OUTPUT: 1.51

INPUT: Further, for C/C(=C\c1ccccc1)C(=O)/C=C/c1ccc([N+](=O)[O-])cc1 ?
OUTPUT: 1.64

INPUT: One more molecule: COc1ccc(/C=C/C(=O)/C(C)=C/c2ccc(OC)cc2)cc1
OUTPUT: 1.88

INPUT: Field entry: C/C(=C\c1ccc(N(C)C)cc1)C(=O)/C=C/c1ccc([N+](=O)[O-])cc1
OUTPUT: 2.22

INPUT: Proceed to CC(=O)/C(C)=C/c1ccc(N(C)C)cc1
OUTPUT: 2.18

INPUT: Could you do the same for COc1ccc(/C=C/C(=O)/C(C)=C/c2ccc([N+](=O)[O-])cc2)cc1 , please?
OUTPUT: 2.24

INPUT: Then what about the molecule CC(=O)/C(C)=C/c1ccccc1 ?
OUTPUT: 2.84

====

Quick reference: IC50 of the listed items.
tested on: Leishmania amazonensis; assay: Antiparasitic activity against promastigote form of Leishmania amazonensis MHOM/BR/Josefa after 72 hrs by hemocytometry; assay type: functional, organism-based

| Given Smiles | Data Value |
| --- | --- |
| C/C(=C\c1ccc(N(C)C)cc1)C(=O)/C=C/c1ccc([N+](=O)[O-])cc1 | > 100 µM |
| CC(=O)/C(C)=C/c1ccc([N+](=O)[O-])cc1 | > 100 µM |
| C/C(=C\c1ccc([N+](=O)[O-])cc1)C(=O)/C=C/c1ccc([N+](=O)[O-])cc1 | 3.4 µM |
| C/C(=C\c1ccc([N+](=O)[O-])cc1)C(=O)/C=C/c1ccccc1 | 13.4 µM |
| C/C(=C\c1ccccc1)C(=O)/C=C/c1ccc([N+](=O)[O-])cc1 | 11.6 µM |
| C/C(=C\c1ccc(N(C)C)cc1)C(=O)/C=C/c1ccc(N(C)C)cc1 | 20.5 µM |
| COc1ccc(/C=C(\C)C(=O)/C=C/c2ccccc2)cc1 | 22.3 µM |
| COc1ccc(/C=C(\C)C(=O)/C=C/c2ccc([N+](=O)[O-])cc2)cc1 | 14.8 µM |
| COc1ccc(/C=C/C(=O)/C(C)=C/c2ccc(OC)cc2)cc1 | 21.8 µM |
| COc1ccc(/C=C/C(=O)/C(C)=C/c2ccc([N+](=O)[O-])cc2)cc1 | 15.5 µM |

INPUT: Checklist item: IC50 tested on Leishmania amazonensis, entry COc1ccc(/C=C(\C)C(C)=O)cc1 , value?
OUTPUT: > 100 µM

INPUT: Note, next up: C/C(=C\c1ccccc1)C(=O)/C=C/c1ccccc1
OUTPUT: 15.3 µM

INPUT: Ok, now CC(=O)/C(C)=C/c1ccccc1
OUTPUT: > 100 µM

INPUT: Do the same for COc1ccc(/C=C/C(=O)/C(C)=C/c2ccccc2)cc1 please
OUTPUT: 20.4 µM

INPUT: Now the compound CC(=O)/C(C)=C/c1ccc(N(C)C)cc1
OUTPUT: > 100 µM

INPUT: Another: COc1ccc(/C=C(\C)C(=O)/C=C/c2ccc(N(C)C)cc2)cc1
OUTPUT: 18 µM

INPUT: Further, for C/C(=C\c1ccccc1)C(=O)/C=C/c1ccc(N(C)C)cc1 ?
OUTPUT: 20 µM

INPUT: And the next one, COc1ccc(/C=C/C(=O)/C(C)=C/c2ccc(N(C)C)cc2)cc1 ?
OUTPUT: 20.1 µM

====

assay: Cytotoxicity against monkey LLC-MK2 cells after 48 hrs by MTT assay; type: cell-based, Macaca mulatta; settings: rhesus monkey
Parameter: CC50 at 48 h

| Given Smiles | CC50 at 48 h |
| --- | --- |
| C/C(=C\c1ccc([N+](=O)[O-])cc1)C(=O)/C=C/c1ccccc1 | 264 µM |
| C/C(=C\c1ccc([N+](=O)[O-])cc1)C(=O)/C=C/c1ccc(N(C)C)cc1 | 25.9 µM |
| COc1ccc(/C=C(\C)C(=O)/C=C/c2ccccc2)cc1 | 44 µM |
| CC(=O)/C(C)=C/c1ccc([N+](=O)[O-])cc1 | 266 µM |
| C/C(=C\c1ccc(N(C)C)cc1)C(=O)/C=C/c1ccccc1 | 191 µM |

INPUT: Which CC50 at 48 h value belongs to O=C(Cn1ccnc1[N+](=O)[O-])NCc1ccccc1 ?
OUTPUT: 615 µM

INPUT: Can you handle C/C(=C\c1ccccc1)C(=O)/C=C/c1ccccc1 next?
OUTPUT: 33.6 µM

INPUT: What do we get for C/C(=C\c1ccc(N(C)C)cc1)C(=O)/C=C/c1ccc(N(C)C)cc1 ?
OUTPUT: 314 µM

INPUT: Another molecule to check: COc1ccc(/C=C(\C)C(=O)/C=C/c2ccc(N(C)C)cc2)cc1
OUTPUT: 411 µM
